# Pharmacophore torsion angle a(C5, CA1, O1, H4) values compiled below
Target: UniProtKB O00187
Experiment: MASP-2 co-crystallization, X-ray crystallography and structure analysis (H-bonds, van der Waals contacts)
Settings: Table A7-1; between pharmacophore elements of the bound compound
// no unit, no text: just the number

Sample records with Pharmacophore torsion angle a(C5, CA1, O1, H4):
CC(NC(=O)C1CC(Cc2ccccc2)CN1)C(=O)NCc1cnc2c(c1)c(Cl)cn2C.Cl.Cl (stereo not drawn) [1450_B] | 13.21
C[C@H](NC(=O)[C@H]1C[C@@H](c2ccccc2)CCN1)C(=O)NCc1cc(Cl)ccc1O.Cl [1078_1] | 25.08

# ---- query compound ----
Data request, read-out Pharmacophore torsion angle a(C5, CA1, O1, H4), for C[C@H](NC(=O)[C@H]1C[C@@H](c2ccccc2)CCN1)C(=O)NCc1cc(Cl)ccc1O.Cl [1078_9]
14.92

====

Reported values of Pharmacophore protein distance to PRO_608 for individual entries
Target: MASP-2 CCP2-SP (Homo sapiens (Human))
Test: MASP-2 co-crystallization, X-ray crystallography and structure analysis (H-bonds, van der Waals contacts)
Details: Table A8-6; nearest protein atom in cell to the left
From the text: This example illustrates the preparation of recombinant MASP-2 protein, based on UniProt O00187, human mannan-binding lectin serine protease 2. Expression constructs for human MASP-2 CCP2-SP and CCP2-SP-6HIS were generated for recombinant expression in E. coli cells. […]
Keep the answer to the number alone.

The following compounds have reported results that may help.
C[C@H](NC(=O)[C@H](N)CCCc1ccccc1)C(=O)NCc1ccc(C(=N)N)cc1.Cl.Cl [1042_3] | 4.06
C[C@H](NC(=O)[C@H]1C[C@@H](c2ccccc2)CN1)C(=O)NCc1ccc2c(N)nccc2c1.Cl.Cl [1089_B] | 3.90
C[C@H](NC(=O)[C@H]1Cc2c([nH]c3ccccc23)CN1)C(=O)NCc1ccc(C(=N)N)cc1.Cl.Cl [1097_1] | 3.89

Report Pharmacophore protein distance to PRO_608 for C[C@H](NC(=O)[C@H]1C[C@@H](c2ccccc2)CN1)C(=O)NCc1ccc2c(N)nccc2c1.Cl.Cl [1089_A] please.
3.90

====

Recorded a(O2, N2, CA2) for the following compounds
Target: MASP-2 CCP2-SP (Homo sapiens (Human), UniProt O00187)
Sequence (O00187 445-686): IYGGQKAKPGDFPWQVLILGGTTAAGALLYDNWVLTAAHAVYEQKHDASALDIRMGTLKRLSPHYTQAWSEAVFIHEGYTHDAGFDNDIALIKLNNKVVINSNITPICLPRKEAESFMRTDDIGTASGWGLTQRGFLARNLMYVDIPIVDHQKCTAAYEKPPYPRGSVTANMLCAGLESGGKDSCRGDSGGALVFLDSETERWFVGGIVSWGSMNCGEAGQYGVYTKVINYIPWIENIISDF
Sequence (O00187 364-432 partner): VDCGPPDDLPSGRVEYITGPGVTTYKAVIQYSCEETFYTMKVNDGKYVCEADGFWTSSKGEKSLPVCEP
Test: MASP-2 co-crystallization, X-ray crystallography and structure analysis (H-bonds, van der Waals contacts)
Conditions: Table A6-2 pharmacophore angle
Counter-ions that a name gives are not always drawn.
Enter the number alone.

For orientation, consider the following solved cases.
Cc1nc(N)ccc1CNC(=O)[C@H](C)NC(=O)[C@H]1C[C@H](Cc2cccc(Cl)c2)CN1.Cl.Cl [1328_4] | 156.25
CC(=O)Nc1ccc(CCN[C@H](CCc2ccccc2)C(=O)N[C@@H](C)C(=O)NCc2ccc(N)nc2C)cc1 [compound 1368, Dihydrochloride] | 145.05
C[C@H](NC(=O)[C@H](N)CCc1cc(Cl)cc(Cl)c1)C(=O)NCc1ccc(C(=N)N)cc1 | 154.60
C[C@H](NC(=O)[C@H](N)C1Cc2ccccc2C1)C(=O)NCc1ccc2c(N)nccc2c1.Cl.Cl | 154.54
Cc1nc(N)ccc1CNC(=O)[C@H](C)NC(=O)[C@H]1C[C@H](Cc2ccccc2Br)CN1.O=C(O)C(F)(F)F.O=C(O)C(F)(F)F [1372_A] | 155.91
C[C@H](NC(=O)[C@H]1C[C@@H](c2ccccc2)CCN1)C(=O)NCc1cc(Cl)ccc1O.Cl [1078_9] | 153.36

# query: a(O2, N2, CA2) of entry `C[C@H](NC(=O)[C@@H](CCc1ccccc1)NCCCc1ccc(O)cc1)C(=O)NCc1ccc(C(=N)N)cc1.Cl.Cl`
153.28

What does the data say about its a(O2, N2, CA2)? Entry: C[C@H](NC(=O)[C@H]1C[C@@H](c2ccccc2)CCN1)C(=O)NCc1cc(Cl)ccc1O.Cl [1078_15]
155.02

Need a(O2, N2, CA2), item `Cc1nc(N)ccc1CNC(=O)[C@H](C)NC(=O)[C@H]1C[C@H](Cc2ccc(-c3ccccc3)cc2)CN1`
158.04

So what does the record say about a(O2, N2, CA2) for CC(NC(=O)C(CCc1ccccc1)NCCCc1ccc(O)cc1)C(=O)NCc1ccc(C(=N)N)cc1.Cl.Cl (stereo not drawn) ?
153.28

Quick one: a(O2, N2, CA2) of C[C@H](NC(=O)[C@H]1C[C@@H](c2ccccc2)CCN1)C(=O)NCc1cc(Cl)ccc1O.Cl [1078_12] ?
157.60

Data request, read-out a(O2, N2, CA2), for Cc1nc(N)ccc1CNC(=O)[C@H](C)NC(=O)[C@H]1C[C@H](Cc2ccccc2Br)CN1.O=C(O)C(F)(F)F.O=C(O)C(F)(F)F [1372_B]
157.88

Sample C[C@H](NC(=O)[C@H]1C[C@@H](c2ccccc2)CCN1)C(=O)NCc1cc(Cl)ccc1O.Cl [1078_8] — what was its a(O2, N2, CA2)?
153.81

Any idea what its a(O2, N2, CA2) is? The compound is C[C@H](NC(=O)C1C[C@@H](c2ccccc2)CCN1)C(=O)NCc1ccc(C(=N)N)cc1 (stereo in doubt)
154.05

Data request, read-out a(O2, N2, CA2), for Cc1nc(N)ccc1CNC(=O)C(C)NC(=O)C1CC(c2cccc3ccccc23)CCN1.Cl.Cl (stereo not drawn) [1297_1]
156.06

Look up a(O2, N2, CA2): Cc1nc(N)ccc1CNC(=O)C(C)NC(=O)C1CC(c2cccc3ccccc23)CCN1.Cl.Cl (stereo not drawn) [1297_6]
154.05

Request the reported a(O2, N2, CA2) associated with `Cc1nc(N)ccc1CNC(=O)[C@H](C)NC(=O)[C@H]1C[C@H](Cc2ccc3ccccc3c2)CN1`
157.11

Which a(O2, N2, CA2) value is on record for C[C@H](NC(=O)[C@H]1C[C@@H](c2ccccc2)CCN1)C(=O)NCc1cc(Cl)ccc1O.Cl [1078_14] ?
155.65

====

Target: MASP-2 CCP2-SP (Homo sapiens (Human), UniProt O00187)
Test: MASP-2 co-crystallization, X-ray crystallography and structure analysis (H-bonds, van der Waals contacts)
Settings: Table A1 (H-Bonds); GLY 656 O
Structures can show the parent of a compound that is named as a salt.
result-type: H-bond distance to MASP-2 GLY 656 atom O
Write no unit; give the number alone.

Recorded results for 10 compounds are shown here.
C[C@H](NC(=O)[C@H]1C[C@@H](c2ccccc2)CN1)C(=O)NCc1ccc2c(N)nccc2c1 [compound 1089] | 2.82
C[C@H](NC(=O)[C@H]1C[C@H](c2ccccc2)CN1)C(=O)NCc1ccc2c(N)nccc2c1 [compound 1090] | 2.78
Cc1cnc(NCCc2ccccc2)c(=O)n1CC(=O)NCc1ccc2nc(N)[nH]c2c1 [compound 1492] | 2.7
C[C@H](NC(=O)[C@H]1C[C@H](c2ccccc2)CN1)C(=O)NCc1ccc(N)nc1 [compound 1012] | 2.77
C[C@H](NC(=O)[C@H]1C[C@H](Cc2ccccc2)CN1)C(=O)NCc1cc(Cl)ccc1-n1cnnn1 [compound 1371, Hydrochloride] | 2.75
C[C@H](NC(=O)[C@H](N)C1Cc2ccccc2C1)C(=O)NCc1ccc2nc(N)[nH]c2c1 [compound 1059] | 2.94
C[C@H](NC(=O)[C@H](N)CCc1cc(Cl)cc(Cl)c1)C(=O)NCc1ccc(C(=N)N)cc1 [compound 1118] | 2.77
CC(=O)Nc1ccc(CCN[C@H](CCc2ccccc2)C(=O)N[C@@H](C)C(=O)NCc2ccc(C(=N)N)cc2)cc1 [compound 1345] | 3.13
Cc1cccc([C@H]2CN[C@@H](C(=O)N[C@@H](C)C(=O)NCc3ccc(N)nc3C)C2)c1 [compound 1257, Dihydrochloride] | 2.82
C[C@H](NC(=O)[C@H]1C[C@H](Cc2ccccc2)CN1)C(=O)NCc1cnc2c(c1)c(Cl)cn2C [compound 1450, Dihydrochloride] | 2.78

H-bond distance to MASP-2 GLY 656 atom O lookup needed for Cc1nc(N)ccc1CNC(=O)[C@H](C)NC(=O)[C@H]1C[C@@H](c2cccc3ccccc23)CCN1 [compound 1297] , thanks.
2.67

State the recorded H-bond distance to MASP-2 GLY 656 atom O for this entry: C[C@H](NC(=O)[C@H]1Cc2c([nH]c3ccccc23)CN1)C(=O)NCc1ccc(C(=N)N)cc1 [compound 1097]
2.98

Which H-bond distance to MASP-2 GLY 656 atom O is listed for N=C(N)c1ccc(CNC(=O)C(CF)NC(=O)[C@H](N)CCc2ccccc2)cc1 (stereo partly drawn) [compound 1050, Dihydrochloride] ?
2.58

====

Target: MASP-2 CCP2-SP (Homo sapiens (Human), UniProt O00187)
Test: MASP-2 co-crystallization, X-ray crystallography and structure analysis (H-bonds, van der Waals contacts)
Parameters: unit not given beside the values
Conditions: Table A2-1
Structures can show the parent of a compound that is named as a salt.
result-type: van der Waals contact distance, MASP-2 HIS 483 atom CD2
Returns: the value as a bare number; no unit string appended.

Sample records with van der Waals contact distance, MASP-2 HIS 483 atom CD2:
Cc1nc(N)ccc1CNC(=O)[C@H](C)NC(=O)[C@H]1C[C@@H](Cc2ccccc2)CCN1 [compound 1353] | 3.77
C[C@H](NC(=O)[C@H]1C[C@@H](c2ccccc2)CN1)C(=O)NCc1ccc2c(N)nccc2c1 [compound 1089] | 3.71

Reported van der Waals contact distance, MASP-2 HIS 483 atom CD2 for MASP-2 CCP2-SP (Homo sapiens (Human), UniProt O00187), given C[C@H](NC(=O)[C@H](N)CCc1ccccc1)C(=O)NCc1cc(Cl)ccc1O [compound 1031, Hydrochloride] ?
3.57

Fill in the recorded van der Waals contact distance, MASP-2 HIS 483 atom CD2 for this molecule, with MASP-2 CCP2-SP (Homo sapiens (Human), UniProt O00187) as test system: C[C@H](NC(=O)[C@H]1C[C@@H](c2ccccc2)CCN1)C(=O)NCc1ccc(C(=N)N)cc1 (stereo in doubt) [compound 1065]
3.67

What reported van der Waals contact distance, MASP-2 HIS 483 atom CD2 corresponds to C[C@H](NC(=O)[C@H]1C[C@H](c2ccccc2)CN1)C(=O)NCc1ccc(C(=N)N)cc1 [compound 1036] on MASP-2 CCP2-SP (Homo sapiens (Human), UniProt O00187)?
3.81

Give MASP-2 CCP2-SP (Homo sapiens (Human), UniProt O00187) van der Waals contact distance, MASP-2 HIS 483 atom CD2 for Cc1cnc(NCCc2ccccc2)c(=O)n1CC(=O)NCc1ccc2nc(N)[nH]c2c1 [compound 1492]
3.78

Item: Cc1nc(N)ccc1CNC(=O)[C@H](C)NC(=O)[C@H]1C[C@@H](c2cccc3ccccc23)CCN1 [compound 1297] Test system: MASP-2 CCP2-SP (Homo sapiens (Human), UniProt O00187) Read-out: van der Waals contact distance, MASP-2 HIS 483 atom CD2 Value: ?
3.74
